Just for reference, paper PMC10397247 is where these values come from.

- assayed target: T1, 4H730-bH
- T1 chain: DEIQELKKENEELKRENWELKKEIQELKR
- protocol description: two-hybrid library CCNG1;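 note: natural log of median RNA to DNA barcode read ratio; higher means stronger binding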
outcome measure: interaction score

Retrieve interaction score measured for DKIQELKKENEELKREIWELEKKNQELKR [4H2760-bH] and print it.
-0.92

A = DKIQELKKKIEELERKIWELKKENQELER [4H2859-bH]
B = DEIQELEKEIEELERKNWELEKKNQELKR [4H56-bH]
Which of the two gives a bigger number for interaction score: A or B ? When you have decided, please share the label of that item.
B

1 = DKIQELKKKIEELKRKNWELEKENQELER [4H2931-bH]
2 = DEIQELEKKIEELKRENWELKKKIQELER [4H349-bH]
Which of the two gives a bigger number for interaction score: 1 or 2 ? When you have decided, please share the label of that item.
2
(2: -0.225, 1: -0.532)

I = DKIQELKKKNEELKRKIWELEKEIQELER [4H3041-bH]
II = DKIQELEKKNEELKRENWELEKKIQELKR [4H2518-bH]
III = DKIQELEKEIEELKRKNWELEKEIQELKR [4H2162-bH]
IV = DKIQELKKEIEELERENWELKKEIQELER [4H2585-bH]
Hey, can you sort those binders up there by interaction score, smallest first? Answer with the labels in sequence, matching the requested order.
III, I, IV, II

P = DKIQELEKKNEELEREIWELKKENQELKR [4H2444-bH]
Q = DKNQELEKKIEELERKNWELEKKIQELER [4H3381-bH]
Which record shows the lower interaction score: the first, P , or the second, Q ? When you have decided, please share the label of that item.
Q

P = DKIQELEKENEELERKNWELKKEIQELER [4H2233-bH]
Q = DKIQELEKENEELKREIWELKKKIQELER [4H2253-bH]
Which of the two gives a bigger number for interaction score: P or Q ? When you have decided, please share the label of that item.
Q
